molecular target: T1, human SIRP-α v1 (human, UniProt P78324 31-149); assay: SPR
T1 construct: also called Human v1; Human V1
T1 sequence (P78324 31-149 limits assumed): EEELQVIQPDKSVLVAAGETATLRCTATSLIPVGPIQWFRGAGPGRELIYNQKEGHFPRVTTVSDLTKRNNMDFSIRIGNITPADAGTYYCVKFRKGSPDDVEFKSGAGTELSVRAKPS
Quantity name: Kd

>>> measured_result("antibody 218 (antibody, V domains shown, also called AB218; S218) VH: DVQLVESGGGVVRPGESLTLSCTASGFTFTSSTMNWVRQAPGEGLDWVSSISTSGVITYYADSVKGRATISRDNSKNTLYLRLFSLRADDTAIYYCATDTFDHWGPGTLVTVSS VL: ALTQPASVSANPGETVKITCFGSSGNYGWFQQKSPGSAPVTVIHYNNKRPSDIPSRFSGSKSGSTGTLTITGVRAEDEAVYFCGAWETGSATFGAGTTLTVL")
"0.123 nM"
>>> measured_result("antibody 118 (antibody, V domains shown, also called S118) VH: VQLVESGGGVVRPGESLRLSCAASGFSFSSYAMNWVRQAPGEGLEWVSRINSGGGGTDYAESVKGRFTISRDNSENTLYLQMNSLRAEDTAVYYCAKQYDWNGFFDYWGLGALVTVSS VL: ETVLTQSPATLSVSPGERATLSCRASQTVGSKLAWHQQKPGQAPRLLIYDASRRATGIPDRFSGSGSGTDFTLTISSLQTEDSAVYYCQQYYYWPPYRFGGGTKVEIK")
"0.0403 nM"
